Molecular target: Luciferin 4-monooxygenase (Photinus pyralis)
Experiment: Biochemical firefly luciferase enzyme assay for NPC (AID 624030);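 note: purified P. pyralis luciferase at 10 nM with luciferin and ATP substrate; nearly all actives have a fitted effect of over 70% in size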
Details: purified P. pyralis luciferase, luminescence, 5 min; series mostly up to 58.6 µM
Inconclusive results are not listed. The source made the active and inactive calls. Calls come from the whole dose curve; as a rule, active = well fitted inhibition curve with a large enough effect; inconclusive = small, poorly fitted or top-dose-only effect; inactive = flat fitted curve, though single readings scatter.

- MOLECULE: "CCCN(CCC)C(=O)[C@@H](CCC(=O)O)NC(=O)c1ccccc1"
  TESTED ON: "Luciferin 4-monooxygenase (Photinus pyralis)"
  outcome: "inactive"
- MOLECULE: "C[C@@H]1c2cccc(O)c2C(O)=C2C(=O)[C@@]3(O)C(O)=C(C(N)=O)C(=O)[C@@H](N(C)C)[C@@H]3[C@@H](O)[C@@H]21"
  TESTED ON: "Luciferin 4-monooxygenase (Photinus pyralis)"
  outcome: "inactive"
- MOLECULE: "CCCN[C@@H](C)C(=O)Nc1ccccc1C"
  TESTED ON: "Luciferin 4-monooxygenase (Photinus pyralis)"
  outcome: "inactive"
- MOLECULE: "O=c1[nH]cnc2c1ncn2C1OC(CO)C(O)C1O (stereo not given)"
  TESTED ON: "Luciferin 4-monooxygenase (Photinus pyralis)"
  outcome: "inactive"
- MOLECULE: "C[C@@H](C(=O)O)c1ccc(C(=O)c2cccs2)cc1"
  TESTED ON: "Luciferin 4-monooxygenase (Photinus pyralis)"
  outcome: "inactive"
- MOLECULE: "NC(=O)c1cc[n+](CC2=C(C(=O)O)N3C(=O)[C@@H](NC(=O)[C@H](c4ccccc4)S(=O)(=O)[O-])[C@@H]3SC2)cc1"
  TESTED ON: "Luciferin 4-monooxygenase (Photinus pyralis)"
  outcome: "inactive"
- MOLECULE: "C[N+]1(C)CCC[C@@H](OC(=O)C(O)(c2ccccc2)c2ccccc2)C1"
  TESTED ON: "Luciferin 4-monooxygenase (Photinus pyralis)"
  outcome: "inactive"
- MOLECULE: "CCN(CC)CCC[C@H](C)Nc1c2ccc(Cl)cc2nc2ccc(OC)cc12"
  TESTED ON: "Luciferin 4-monooxygenase (Photinus pyralis)"
  outcome: "inactive"
- MOLECULE: "CC(=O)O[C@@H](C)C[N+](C)(C)C"
  TESTED ON: "Luciferin 4-monooxygenase (Photinus pyralis)"
  outcome: "inactive"
- MOLECULE: "CC(C)(C)NC[C@H](O)c1cc(O)cc(O)c1"
  TESTED ON: "Luciferin 4-monooxygenase (Photinus pyralis)"
  outcome: "inactive"
- MOLECULE: "CCn1cc(C(=O)O)c(=O)c2cc(F)c(N3CCN[C@@H](C)C3)c(F)c21"
  TESTED ON: "Luciferin 4-monooxygenase (Photinus pyralis)"
  outcome: "inactive"
- MOLECULE: "C[C@@H]1COc2c(N3CCN(C)CC3)c(F)cc3c(=O)c(C(=O)O)cn1c23"
  TESTED ON: "Luciferin 4-monooxygenase (Photinus pyralis)"
  outcome: "inactive"
- MOLECULE: "CC(=O)Nc1c(I)c(C(=O)N[C@H]2[C@@H](O)[C@H](O)[C@H](CO)O[C@@H]2O)c(I)c(N(C)C(C)=O)c1I"
  TESTED ON: "Luciferin 4-monooxygenase (Photinus pyralis)"
  outcome: "inactive"
- MOLECULE: "C[C@@H]1CCC[C@H](C)N1NC(=O)c1ccc(Cl)c(S(N)(=O)=O)c1"
  TESTED ON: "Luciferin 4-monooxygenase (Photinus pyralis)"
  outcome: "inactive"
- MOLECULE: "CCC[C@H]1C(=O)N2C(N(C)C)=Nc3ccc(C)cc3N2C1=O"
  TESTED ON: "Luciferin 4-monooxygenase (Photinus pyralis)"
  outcome: "inactive"
- MOLECULE: "COCCc1ccc(OC[C@H](O)CNC(C)C)cc1"
  TESTED ON: "Luciferin 4-monooxygenase (Photinus pyralis)"
  outcome: "inactive"
- MOLECULE: "CN1CCCC[C@@H]1CCN1c2ccccc2Sc2ccc(S(C)=O)cc21 (stereo not given in full)"
  TESTED ON: "Luciferin 4-monooxygenase (Photinus pyralis)"
  outcome: "inactive"
- MOLECULE: "CC(C)NC[C@H](O)c1cc(O)cc(O)c1"
  TESTED ON: "Luciferin 4-monooxygenase (Photinus pyralis)"
  outcome: "inactive"
- MOLECULE: "CO/N=C(/C(=O)NC1C(=O)N2C(C(=O)O)=C(CSc3nc(=O)c(O)nn3C)CSC12)c1csc(N)n1 (stereo not given)"
  TESTED ON: "Luciferin 4-monooxygenase (Photinus pyralis)"
  outcome: "inactive"
- MOLECULE: "CC(=O)N(CC(O)CN(C(C)=O)c1c(I)c(C(=O)NC[C@@H](O)CO)c(I)c(C(=O)NC[C@@H](O)CO)c1I)c1c(I)c(C(=O)NC[C@@H](O)CO)c(I)c(C(=O)NC[C@@H](O)CO)c1I"
  TESTED ON: "Luciferin 4-monooxygenase (Photinus pyralis)"
  outcome: "inactive"
